Biological target: Bromodomain-containing protein 4 (Homo sapiens, UniProt O60885)
Test: Binding affinity to His-tagged BRD4 bromodomain 1 to 2 (K57 to K550 amino acids) (unknown origin) using Alexa647-labeled BET-inhibitor as fluorescent probe by bromodomain TR-FRET binding assay
Format: single protein
measurement.name: Ki (nM)

> print(dat)
                                 mol.smiles  measurement.name  numeric.readout
1  CCS(=O)(=O)Nc1ccc2c(c1)-c1c[nH]c(=O)c3c1c(cn3C)CN2c1ccc(F)cc1                Ki              4.8

(a) Cn1cc(-c2cc(S(C)(=O)=O)ccc2NCC2CC2)c2cc[nH]c(=O)c21
(b) Cn1cc2c3c(c[nH]c3c1=O)CN(C1CCC(F)(F)CC1)c1ccc(CS(C)(=O)=O)cc1-2
(c) Cn1cc2c3c(c[nH]c3c1=O)CN(CC1CC1)c1ccc(CS(C)(=O)=O)cc1-2
(d) Cn1cc2c3c(c[nH]c(=O)c31)-c1cc(CS(C)(=O)=O)ccc1N(c1ccccn1)C2
Lookup: Number of compounds to sort: 4. Sort criterion: Ki, ascending. Answer format: the labels, in the requested order.
Found: d, b, c, a
